TARGET SYSTEM: Histone-lysine N-methyltransferase EHMT2 (Homo sapiens)
MEASUREMENT NOTES: qHTS Assay for Inhibitors of Histone Lysine Methyltransferase G9a; further: nearly all actives have a fitted effect of over 75% in size
PARTICULARS: G9a H3K9 monomethylation, AlphaScreen, 2 h; series mostly up to 59 µM
Out of some 350,000 compounds screened, about 31,000 (8.9%) were called active. Not shown: some 15% with an inconclusive outcome. The call rests on the fitted dose curve; in most records, active means well fitted inhibition curve with a large enough effect; inconclusive means small, poorly fitted or top-dose-only effect; inactive means no such curve, though single readings can be large or run the other way. The list comes from a sample in which actives are over-represented; it also holds close analogues and randomly drawn compounds.
Select the matching outcome among 1 (yes) (active), 0 (no) (inactive)

Examples from the recorded data:
COMPOUND	TARGET SYSTEM	QUALITATIVE LABEL
Cc1ccc(C(=O)Nc2c(C(=O)NC(C)(C)C)oc3ccccc23)cc1	Histone-lysine N-methyltransferase EHMT2 (Homo sapiens)	0 (no)
CN1CCN(c2oc(-c3ccc(COc4ccc(Cl)cc4)o3)nc2C#N)CC1	Histone-lysine N-methyltransferase EHMT2 (Homo sapiens)	1 (yes)
Cc1ccc(N2C(=O)CC(N3CCSCC3)C2=O)c(C)c1 (stereo not drawn)	Histone-lysine N-methyltransferase EHMT2 (Homo sapiens)	0 (no)
Nc1nnc(SCn2nnc3ccccc3c2=O)s1	Histone-lysine N-methyltransferase EHMT2 (Homo sapiens)	1 (yes)
O=C(Nc1cccnc1)c1cc(Cl)ccc1Cl	Histone-lysine N-methyltransferase EHMT2 (Homo sapiens)	0 (no)
CCN(CC)c1ccc(NC(=O)CCc2nnc3ccc(N4CCCCC4)nn23)c(C)c1	Histone-lysine N-methyltransferase EHMT2 (Homo sapiens)	1 (yes)

Ask: Hey, what did the test say about COc1ccc(NC(=O)c2sccc2SCC#N)cc1 ?
Reply: 1 (yes)

Ask: Hey, what did the test say about Cc1ccc(CCNC(=O)c2ccc3c(c2)nc2n3CCC(C)C2)cc1 (stereo not drawn) ?
Reply: 0 (no)

Ask: Hey, what did the test say about COc1ccc(NC(=O)c2sc(N)nc2-c2ccccc2)cc1 ?
Reply: 0 (no)

Ask: Hey, what did the test say about COc1ccc([N+](=O)[O-])cc1C1NN=C(c2cccc3ccccc23)S1 (stereo not drawn) ?
Reply: 1 (yes)

Ask: Hey, what did the test say about COc1ccccc1C1CCN(c2ccc([N+](=O)[O-])cn2)CC1 ?
Reply: 0 (no)

Ask: Hey, what did the test say about O=C(/C=C/c1ccc(Cl)c([N+](=O)[O-])c1)c1cccnc1 ?
Reply: 1 (yes)

Ask: Hey, what did the test say about COc1ccc([N+](=O)[O-])cc1NC(=O)C(C)OC(=O)C1c2ccccc2Oc2ccccc21 (stereo not drawn) ?
Reply: 0 (no)

Ask: Hey, what did the test say about O=C(CCSCc1ccccc1F)N1CCN(c2ccc(Cl)cc2)CC1 ?
Reply: 0 (no)

Ask: Hey, what did the test say about O=C(CN1C(=O)COc2ccc(Cl)cc21)N1CCOCC1 ?
Reply: 0 (no)

Ask: Hey, what did the test say about CCCCN1CC(c2nc3ccccc3n2CCCCOc2ccc(C)cc2C)CC1=O (stereo not drawn) ?
Reply: 0 (no)

Ask: Hey, what did the test say about COc1ccc(OCc2ccc(-c3nc(C#N)c(N4CCN(c5ccccc5)CC4)o3)o2)cc1 ?
Reply: 0 (no)

Ask: Hey, what did the test say about Cc1ccc(CNC(=O)CSc2c(C)cnc3c2c(=O)n(C)c(=O)n3C)cc1 ?
Reply: 0 (no)

Ask: Hey, what did the test say about O=c1c2ccccc2nnn1CSc1nc2sc3c(c2c(=O)n1CC1CCCO1)CCC3 (stereo not drawn) ?
Reply: 0 (no)

Ask: Hey, what did the test say about COc1ccc(NC(=O)CSc2nc3ccccc3[nH]2)cc1 ?
Reply: 0 (no)

Ask: Hey, what did the test say about O=C(Nc1cccnc1)c1cc([N+](=O)[O-])ccc1Cl ?
Reply: 0 (no)

Ask: Hey, what did the test say about COc1ccc(NC(=O)c2cc([N+](=O)[O-])ccc2NC(=O)CNC2CCCCC2C)c(OC)c1 (stereo not drawn) ?
Reply: 0 (no)

Ask: Hey, what did the test say about COc1ccc(NC(=O)CSc2nc(C)cs2)cc1 ?
Reply: 0 (no)
